- Test summary: Ocular tissue concentrations (aqueous humor, vitreous humor, iris, retina, choroid, cornea) after topical ocular, subcutaneous and intravitreal administration
- Assay type: in vivo, New Zealand White rabbits
- Assay context: New Zealand White, rabbit, retina, subcutaneous, 5 mg/kg/dose, TABLE 16: Retina, 2 hr, OS; free acid, subcutaneous 5 mg/kg/dose, Group 3; read-out: Retina Conc. (ng/g) OS
Recorded metric: concentration at 2 h (ng/g)
Answer in ng/g, number only, no unit symbol.

Exercise: Respond only with concentration at 2 h recorded for COC(=O)N[C@@H](Cc1ccccc1)C(=O)N[C@@H](Cc1ccc(NS(=O)(=O)O)cc1)c1csc(-c2cccs2)n1
Solution: 6.93

* * *

- Test summary: Ocular tissue concentrations (aqueous humor, vitreous humor, iris, retina, choroid, cornea) after topical ocular, subcutaneous and intravitreal administration
- Type: in vivo, New Zealand White rabbits
- Assay context: New Zealand White, rabbit, choroid homogenate, other: intravitreal, 2.5 mg/eye, Choroid homogenate, 72 hr, left eye, intravitreal 2.5 mg/eye (group 5), individual animals; read-out: Conc. (ng/mL) OS
Recorded metric: concentration at 72 hr (ng/mL)
Number only, in ng/mL; omit the unit.

Exercise: Note concentration at 72 hr for the compound shown: COC(=O)N[C@@H](Cc1ccccc1)C(=O)N[C@@H](Cc1ccc(NS(=O)(=O)O)cc1)c1csc(-c2cccs2)n1 [Compound 1]
Solution: 2660

* * *

- Test summary: Ocular tissue concentrations (aqueous humor, vitreous humor, iris, retina, choroid, cornea) after topical ocular, subcutaneous and intravitreal administration
- Type: in vivo, New Zealand White rabbits
- Assay context: New Zealand White, rabbit, iris, other: intravitreal, 2.5 mg/eye, Iris, 72 hr, left eye, intravitreal 2.5 mg/eye (group 5), individual animals; read-out: Conc. (ng/g) OS
Recorded metric: concentration at 72 h (ng/g)
Use ng/g as the unit, but write only the number.

Exercise: Return concentration at 72 h for the following molecule: COC(=O)N[C@@H](Cc1ccccc1)C(=O)N[C@@H](Cc1ccc(NS(=O)(=O)O)cc1)c1csc(-c2cccs2)n1
Solution: 19800

* * *

- Test summary: Ocular tissue concentrations (aqueous humor, vitreous humor, iris, retina, choroid, cornea) after topical ocular, subcutaneous and intravitreal administration
- Type: in vivo, New Zealand White rabbits
- Assay context: New Zealand White, rabbit, choroid, subcutaneous, 5 mg/kg/dose, Choroid, 4 hr; free acid, subcutaneous 5 mg/kg/dose, Group 3; read-out: Choroid Average
Recorded metric: concentration at 4 h

Exercise: Quick one: give measured concentration at 4 h for COC(=O)N[C@@H](Cc1ccccc1)C(=O)N[C@@H](Cc1ccc(NS(=O)(=O)O)cc1)c1csc(-c2cccs2)n1
Solution: 61 ng/g

* * *

- Test summary: Ocular tissue concentrations (aqueous humor, vitreous humor, iris, retina, choroid, cornea) after topical ocular, subcutaneous and intravitreal administration
- Type: in vivo, New Zealand White rabbits
- Assay context: New Zealand White, rabbit, iris homogenate, other: intravitreal, 2.5 mg/eye, Iris homogenate, 24 hr, right eye, intravitreal 2.5 mg/eye (group 5), individual animals; read-out: Conc. (ng/mL) OD
Recorded metric: concentration at 24 h (ng/mL)
Your answer should be a plain number; it is taken to be in ng/mL.

Exercise: Tell me its concentration at 24 h given COC(=O)N[C@@H](Cc1ccccc1)C(=O)N[C@@H](Cc1ccc(NS(=O)(=O)O)cc1)c1csc(-c2cccs2)n1 [Compound 1] as the entry.
Solution: 7670
